Origin of measurements: PubChem BioAssay (NCI)

Tested on: A498 renal
ASSAY_PROTOCOL: NCI-60 one-dose screen, 48 h (100 = growth as untreated, 0 = no growth, -100 = all killed)
CONDITION_CONTEXT: 10 µM unless noted
About 83,000 compounds went through this panel and 20% of them were active in at least one assay; those are over-represented in the sample as a whole. Active and inactive are the calls of the source. Rule for the calls: active = growth percent below 10; inactive = the rest.
RESULT_TYPE: growth

- C=C1C(=O)O[C@H]2[C@H]1CC/C(COC(=O)NCc1[nH]nc3ccccc13)=C\CC[C@@]1(C)O[C@@H]21: 94.3% (inactive)
- CCCCOc1nc2ccccc2cc1/C=C/c1cc(/C=C/c2cc3ccccc3nc2OCCCC)n(-c2ccccc2)n1: 95.9% (inactive)
- CC(C)CCSc1nc(Nc2ccccc2)c(C#N)c(-c2ccc(F)cc2)n1: 40% (inactive)
- CCOc1cc(/C=N\NC(=O)C[N+](C)(C)C)ccc1O: 115% (inactive)
- CCOC(=O)C(CCCCC(NC(C)=O)(C(=O)OCC)C(=O)OCC)(NC(C)=O)C(=O)OCC: 115% (inactive)
- CCn1c(Cc2ccccc2Nc2c(Cl)cccc2Cl)nnc1SCC(=O)Nc1cccc(OC)c1: 40.9% (inactive)
- NS(=O)(=O)c1ccc(CCn2c(SCC(=O)N/N=C/c3cccnc3)nc3ccccc3c2=O)cc1: 85.5% (inactive)
- C=C(C)[C@@H]1CC[C@]2(C(=O)O)CC[C@]3(C)[C@H](CC[C@@H]4[C@@]5(C)C[C@@H](CC#Cc6ccc(C(C)=O)s6)[C@H](O)C(C)(C)[C@@H]5CC[C@]43C)[C@@H]12: -3.73% (active)
- COc1cc(OC)cc(-c2ccc(-c3ccc(C(=N)N)s3)s2)c1: -80.9% (active)
- c1ccc(CCn2cccc2)nc1: 105% (inactive)
- c1ccc(-c2nnn(-c3ccccc3)n2)cc1: 119% (inactive)
- CCOC(=O)C1C(=O)C=C(c2cc(OC)c(OC)c(OC)c2)CC1c1sc(N(C)Cc2ccccc2)nc1Cl (stereo not given): 86.1% (inactive)
- CC(C)(C)[Si](C)(C)OC1[C@@H](CNC(N)=O)O[C@@H](n2cnc3c(NC(=O)Nc4ccccc4)ncnc32)[C@H]1O[Si](C)(C)C(C)(C)C (stereo not given in full): 81% (inactive)
- O=c1nc(-c2ccccc2)c2cc(-c3ccc(N4CCOCC4)cc3)ccc2[nH]1: 88.6% (inactive)
- N/N=C(\C(=N\N)c1ccccc1)c1ccccc1: 76.1% (inactive)
- O=[N+]([O-])c1ccc(Sc2nc(Cl)nc(NC3CCCC3)n2)cc1: -94.2% [100 µM] (active)
- CCOC(=O)Cn1c(-c2nonc2NC(=O)c2ccccc2F)nc2ccccc21: 82.5% (inactive)
- C=C[C@H]1CCC/C=C/[C@@H]2C[C@H](O)C[C@H]2[C@H](O)/C=C/C(=O)O1: -48.7% (active)
- COc1ccc(CC2c3cc(OC)c(OC)cc3CC[N+]2(C)CCC(=O)OCCCCCOC(=O)CC[N+]2(C)CCc3cc(OC)c(OC)cc3C2Cc2ccc(OC)c(OC)c2)cc1OC (stereo not given): 66% (inactive)
- COC(=O)[C@H](Cc1cn(C)cn1)NC(=O)[C@H](CC(C)C)NC(=O)Nc1cc(C(F)(F)F)cc(C(F)(F)F)c1: -93.8% [100 µM] (active)
- C=C1C(=O)O[C@H]2[C@H]1CC/C(COC(=O)NCc1ccc(Cn3c(=O)sn(CCCl)c3=O)cc1)=C\CC[C@@]1(C)O[C@@H]21: 98.4% (inactive)
- CC(=O)Oc1ccccc1C(=O)Nc1ncc([N+](=O)[O-])s1: -40.2% (active)
- CCCCCN(CCCCC)C(=O)C(CCC(=O)O)NC(=O)c1ccc(Cl)c(Cl)c1 (stereo not given): 83.8% (inactive)
- COc1ccc2nc3ccccc3c(NCc3ccc(C)cc3)c2c1: -1.58% (active)
- CC(=O)O[C@@H]1CC2C(C)(C)CCCC2(C)C2=C1C(=O)C(C(C)C)=CC2=O (stereo not given in full): -63.3% (active)
